Tested on: Pseudomonas aeruginosa
Assay: Antibacterial activity against IMP-4 producing Pseudomonas aeruginosa isolate 208247 after 18 hrs in presence of BPL by CLSI broth microdilution method
Assay type: functional
Details: isolate 208247, 18 h
Rule for this label: y means MIC is less than 60 µg/mL; n means MIC is at least 60 µg/mL.

Below, 2 molecules whose answers are already recorded.
CC(C)C(O/N=C(\C(=O)N[C@@H]1C(=O)N(S(=O)(=O)O)[C@@H]1CCl)c1csc(N)n1)c1cc(=O)c(O)cn1O (stereo partly drawn) = y
CC(C)C(O/N=C(\C(=O)N[C@@H]1C(=O)N(S(=O)(=O)O)[C@@H]1CSc1nnnn1C)c1csc(N)n1)c1cc(=O)c(O)cn1O (stereo partly drawn) = y

Query: In plain terms, does CC(C)C(O/N=C(\C(=O)NC1C(=O)N(S(=O)(=O)O)C12CCCCC2)c1csc(N)n1)c1cc(=O)c(O)cn1O (stereo not drawn) come in under 60 µg/mL for MIC?
Result: n

Query: In plain terms, does CC(C)C(O/N=C(\C(=O)N[C@@H]1C(=O)N(S(=O)(=O)O)[C@@H]1COC(=O)C1CN(C(=O)c2ccc(O)c(O)c2Cl)C1)c1csc(N)n1)c1cc(=O)c(O)cn1O (stereo partly drawn) come in under 60 µg/mL for MIC?
Result: y

Query: In plain terms, does CC(C)C(O/N=C(\C(=O)N[C@@H]1C(=O)N(S(=O)(=O)O)[C@@H]1CSc1nc2ccccc2o1)c1csc(N)n1)c1cc(=O)c(O)cn1O (stereo partly drawn) come in under 60 µg/mL for MIC?
Result: n

----------
Tested on: Klebsiella pneumoniae
Assay: Antibacterial activity against KPC-2 producing Klebsiella pneumoniae isolate 209632 after 18 hrs in presence of BPL by CLSI broth microdilution method
Type: functional
Details: isolate 209632, 18 h
measurementLabel: log10 MIC (log10 of the value in µg/mL)
Base-10 log of MIC, unit µg/mL.

Illustrative cases are given below, each with its answer.
CC(C)C(O/N=C(\C(=O)N[C@@H]1C(=O)N(S(=O)(=O)O)[C@@H]1COC(N)=O)c1csc(N)n1)c1cc(=O)c(O)cn1O (stereo partly drawn) = 0.30
CC(C)C(O/N=C(\C(=O)N[C@@H]1C(=O)N(S(=O)(=O)O)[C@@H]1COC(=O)c1ccc(O)c(O)c1Cl)c1csc(N)n1)c1cc(=O)c(O)cn1O (stereo partly drawn) = 0.60

Query: What log10 MIC value was documented for this compound, CC(C)C(O/N=C(\C(=O)N[C@@H]1C(=O)N(S(=O)(=O)O)[C@@H]1COC(=O)C1CN(C(=O)c2ccc(O)c(O)c2Cl)C1)c1csc(N)n1)c1cc(=O)c(O)cn1O (stereo partly drawn) ?
Result: 0.90

Query: What log10 MIC value was documented for this compound, CC(C)C(O/N=C(\C(=O)NC1C(=O)N(S(=O)(=O)O)C12CCOCC2)c1csc(N)n1)c1cc(=O)c(O)cn1O (stereo not drawn) ?
Result: 0.00

----------
System: Klebsiella pneumoniae
Experiment: Selectivity index, ratio of MIC for against KPC-2 producing Klebsiella pneumoniae isolate 212423 to MIC for against KPC-2 producing Klebsiella pneumoniae isolate 212423 in presence of BPL
Format: functional
Catalogue of compounds with associated Selectivity Index
Respond with the number and no other words.

CC(C)C(O/N=C(\C(=O)N[C@@H]1C(=O)N(S(=O)(=O)O)[C@@H]1COC(=O)c1ccc(O)c(O)c1Cl)c1csc(N)n1)c1cc(=O)c(O)cn1O (some centres undefined) = 4
CC(C)C(O/N=C(\C(=O)N[C@@H]1C(=O)N(S(=O)(=O)O)[C@@H]1CSc1nc2ccccc2o1)c1csc(N)n1)c1cc(=O)c(O)cn1O (some centres undefined) = 2
CC(C)C(O/N=C(\C(=O)N[C@@H]1C(=O)N(S(=O)(=O)O)[C@@H]1COC(N)=O)c1csc(N)n1)c1cc(=O)c(O)cn1O (some centres undefined) = 2
CC(C)C(O/N=C(\C(=O)NC1C(=O)N(S(=O)(=O)O)C12CCCCC2)c1csc(N)n1)c1cc(=O)c(O)cn1O (centres undefined) = 2

Query: What Selectivity Index value was documented for this compound, CC(C)C(O/N=C(\C(=O)NC1C(=O)N(S(=O)(=O)O)C12CCOCC2)c1csc(N)n1)c1cc(=O)c(O)cn1O (centres undefined) ?
Result: 2

Query: What Selectivity Index value was documented for this compound, CC(C)C(O/N=C(\C(=O)N[C@@H]1C(=O)N(S(=O)(=O)O)[C@@H]1CN1CCNCC1)c1csc(N)n1)c1cc(=O)c(O)cn1O (some centres undefined) ?
Result: 2

Query: What Selectivity Index value was documented for this compound, CC(C)C(O/N=C(\C(=O)N[C@@H]1C(=O)N(S(=O)(=O)O)[C@@H]1COS(=O)(=O)O)c1csc(N)n1)c1cc(=O)c(O)cn1O (some centres undefined) ?
Result: 4
